# assay overview: Plasma clearance in rat at 1 mg/kg, iv or 3 mg/kg, po
# Assay type: ADME, organism-based
endpoint: clearance
# do not omit the unit; it follows the number

Q) clearance lookup needed for O=C(/C=C1\CC(C(=O)[O-])Nc2cc(Cl)ccc21)Nc1ccccc1.[Na+] (stereo unspecified) , thanks.
A) 3.5 mL/min/kg
